assay: Compound was tested for the binding affinity and selectivity by competitive inhibition of radioligands on opioid delta receptor in guinea pig brain membranes

# Record Smiles, Ki, nM
rows = [
    ("CN(C(=O)Cc1ccc(Cl)c(Cl)c1)[C@H](CN1CCCC1)c1cccc(NC(=O)[C@H](N)CC(=O)O)c1", 573),
    ("CN(C(=O)Cc1ccc(Cl)c(Cl)c1)[C@H](CN1CCCC1)c1cccc(NC(=O)[C@@H](N)CC(=O)O)c1", 1070),
]
